test system: TRKA (Homo sapiens)
Construct: purchased Eurofins DiscoverX KINOMEscan (scanTK)
Sequence (P04629 33-796): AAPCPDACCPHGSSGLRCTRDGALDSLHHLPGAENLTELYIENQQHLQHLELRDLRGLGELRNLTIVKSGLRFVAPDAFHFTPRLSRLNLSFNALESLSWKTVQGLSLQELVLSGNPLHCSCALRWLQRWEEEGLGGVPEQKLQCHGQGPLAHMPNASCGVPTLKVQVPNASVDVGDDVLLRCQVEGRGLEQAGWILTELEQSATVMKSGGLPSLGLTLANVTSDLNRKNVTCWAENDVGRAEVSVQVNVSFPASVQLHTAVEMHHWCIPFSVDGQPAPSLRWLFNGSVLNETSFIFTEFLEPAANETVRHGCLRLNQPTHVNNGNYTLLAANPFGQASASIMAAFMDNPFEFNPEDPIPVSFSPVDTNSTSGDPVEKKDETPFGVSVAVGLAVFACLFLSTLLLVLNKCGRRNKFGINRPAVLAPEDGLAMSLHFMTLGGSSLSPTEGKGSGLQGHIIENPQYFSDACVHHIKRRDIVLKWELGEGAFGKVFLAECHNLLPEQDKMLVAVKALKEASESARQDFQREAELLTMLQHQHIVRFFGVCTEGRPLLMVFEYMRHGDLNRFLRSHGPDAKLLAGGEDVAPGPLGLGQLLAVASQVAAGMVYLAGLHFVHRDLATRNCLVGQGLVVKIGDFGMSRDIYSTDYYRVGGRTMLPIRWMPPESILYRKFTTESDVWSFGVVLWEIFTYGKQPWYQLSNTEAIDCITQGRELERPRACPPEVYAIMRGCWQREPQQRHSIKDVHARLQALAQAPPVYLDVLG
assay name: KINOMEscan ScanTK
Assay type: binding
protocol conditions: @1000nM; TRKA; read-out: %Control
Readings of remaining binding at 1 µM for the listed compounds
measured attribute: remaining binding at 1 µM

CNC(=O)c1cnc(S(C)(=O)=O)nc1N1CCCC(n2nc(-c3ccc(Oc4ccccc4)cc3)c3c(N)ncnc32)C1 (stereo not shown) [Compound 8d] = 83%
CCOC(=O)c1cnc(S(C)(=O)=O)nc1N1CCC[C@@H](n2nc(-c3ccc(Oc4ccccc4)cc3)c3c(N)ncnc32)C1 [Compound 8c] = 93%
Cc1cnc(S(C)(=O)=O)nc1N1CCCC(n2nc(-c3ccc(Oc4ccccc4)cc3)c3c(N)ncnc32)C1 (stereo not shown) [Compound 8a] = 97%
COC(=O)c1cnc(S(C)(=O)=O)nc1N1CCCC(n2nc(-c3ccc(Oc4ccccc4)cc3)c3c(N)ncnc32)C1 (stereo not shown) [Compound 8b] = 89%
